- tested-target: hCRTH2 (Homo sapiens)
- Construct: expressed in transfected cells; host or cells: HEK (human embryonic kidney) cells expressing hCRTH2
- test-protocol: Radioligand Binding Assay A ([3H]PGD2 filtration binding, HEK-hCRTH2 membranes)
- applied-conditions: Table A, rated A-D
outcome-measure: Ki

Please review the entries below; each comes with its answer.
compound="O=C(O)CCCCc1cc2cc(C(=O)N[C@H]3CCc4ccc(F)cc43)cnc2nc1-c1ccc(F)cc1 [Compound 6M]" tested_target="hCRTH2 (Homo sapiens)" observed_measurement="20.1 to 200 nM"
compound="O=C(O)CCCCc1cc2cc(C(=O)N[C@H]3CCc4cc(Cl)ccc43)ccc2nc1-c1ccc(F)cc1 [Compound 5R]" tested_target="hCRTH2 (Homo sapiens)" observed_measurement="2.1 to 20 nM"
compound="O=C(O)CCCCc1cc2cc(C(=O)N[C@H](c3ccc(Cl)cc3)C(F)(F)F)ccc2nc1-c1ccccc1 [Compound 1AF]" tested_target="hCRTH2 (Homo sapiens)" observed_measurement="2.1 to 20 nM"
compound="O=C(O)CCCCc1cc2cc(C(=O)N3CCC[C@H](c4ccccc4)C3)ccc2nc1-c1ccccc1 [Compound 1L]" tested_target="hCRTH2 (Homo sapiens)" observed_measurement="2.1 to 20 nM"
compound="C[C@@H](NC(=O)c1cnc2nc(-c3ccc(F)cc3)c(CCCCC(=O)O)cc2c1)c1ccc(Cl)cc1 [Compound 6]" tested_target="hCRTH2 (Homo sapiens)" observed_measurement="20.1 to 200 nM"
compound="C[C@H](NC(=O)c1ccc2nc(-c3ccccc3)c(CCCCC(=O)O)cc2c1)c1ccccc1 [Compound 1T]" tested_target="hCRTH2 (Homo sapiens)" observed_measurement="2.1 to 20 nM"
compound="C[C@@H](NC(=O)c1ccc2nc(-c3ccccc3)c(CCCCC(=O)O)cc2c1)c1ccccc1 [Compound 1S]" tested_target="hCRTH2 (Homo sapiens)" observed_measurement="2.1 to 20 nM"
compound="C[C@H](NC(=O)c1ccc2nc(-c3ccc(F)cc3)c(CCCCC(=O)O)cc2c1)c1ccc(Cl)cc1 [Compound 5i]" tested_target="hCRTH2 (Homo sapiens)" observed_measurement="2.1 to 20 nM"
compound="O=C(O)CCCCc1cc2cc(C(=O)N[C@H](c3ccccc3)C(F)(F)F)ccc2nc1-c1ccccc1 [Compound 1H]" tested_target="hCRTH2 (Homo sapiens)" observed_measurement="2.1 to 20 nM"
compound="O=C(O)CCCCc1cc2cc(C(=O)N[C@H]3CCCc4ccc(F)cc43)cnc2nc1-c1ccc(F)cc1 [Compound 6o]" tested_target="hCRTH2 (Homo sapiens)" observed_measurement="20.1 to 200 nM"

(Q) For O=C(O)CCCCc1cc2cc(C(=O)N[C@@H]3CCc4ccccc43)ccc2nc1-c1ccccc1 [Compound 1M] , what is its reported Ki?
(A) 2.1 to 20 nM

(Q) Would you mind telling me what Ki value was observed for C[C@@H](NC(=O)c1ccc2cc(-c3ccccc3)c(CCCCC(=O)O)nc2c1)c1ccc(F)cc1 [Compound 4E] ?
(A) 0.1 to 2 nM

(Q) What value of Ki has been reported for the following compound? O=C(O)CCCCc1cc2cc(C(=O)N[C@@H]3CCCc4ccc(F)cc43)cnc2nc1-c1ccc(F)cc1 [Compound 6H]
(A) 20.1 to 200 nM

(Q) I have this compound here, O=C(O)CCCCc1cc2cc(C(=O)N[C@H]3CCCc4ccc(F)cc43)ccc2nc1-c1ccc(F)cc1 [Compound 5N] , and I need its recorded Ki.
(A) 20.1 to 200 nM

(Q) Any idea what Ki was measured for C[C@@H](NC(=O)c1ccc2nc(-c3ccccc3)c(CCCCC(=O)O)cc2c1)c1ccc(Cl)cc1 [Compound 1AD] ?
(A) 2.1 to 20 nM

###

Quick reference: pKi of the listed items.
- tested-target: hCRTH2 (Homo sapiens)
- Construct: expressed in transfected cells; host or cells: HEK (human embryonic kidney) cells expressing hCRTH2
- Sequence (Q9Y5Y4 1-395): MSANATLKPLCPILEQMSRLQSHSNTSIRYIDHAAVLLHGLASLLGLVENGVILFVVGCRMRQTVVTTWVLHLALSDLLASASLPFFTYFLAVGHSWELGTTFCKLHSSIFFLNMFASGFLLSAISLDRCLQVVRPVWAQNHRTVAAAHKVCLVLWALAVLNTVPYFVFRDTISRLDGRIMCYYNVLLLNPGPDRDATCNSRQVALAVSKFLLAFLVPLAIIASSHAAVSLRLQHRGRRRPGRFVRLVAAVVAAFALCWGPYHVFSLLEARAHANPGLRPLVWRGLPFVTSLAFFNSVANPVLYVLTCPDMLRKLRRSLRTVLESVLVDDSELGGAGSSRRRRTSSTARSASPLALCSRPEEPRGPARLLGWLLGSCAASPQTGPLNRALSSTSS
- test-protocol: Radioligand Binding Assay A ([3H]PGD2 filtration binding, HEK-hCRTH2 membranes)
- applied-conditions: Table A, rated A-D
pKi: −log10 of the molar value.

Known pKi results, listed for orientation:
compound=C[C@H](NC(=O)c1ccc2cc(-c3ccccc3)c(CCCCC(=O)O)nc2c1)c1ccc(Cl)cc1 observed_measurement="7.70 to 8.68"
compound=CN(Cc1ccc(C(F)(F)F)cc1)C(=O)c1ccc2nc(-c3ccc(F)cc3)c(CCCCC(=O)O)cc2c1 observed_measurement="7.70 to 8.68"
compound=O=C(O)CCCCc1cc2cc(C(=O)N[C@@H]3CCCc4cc(Cl)ccc43)ccc2nc1-c1ccc(F)cc1 observed_measurement="7.70 to 8.68"

Field: next compound
(Q) # get_value(readout='pKi', item= O=C(O)CCCCc1cc2cc(C(=O)N[C@H]3CCc4ccccc43)ccc2nc1-c1ccc(F)cc1 )
(A) 7.70 to 8.68

###

- tested-target: hCRTH2 (Homo sapiens, UniProt Q9Y5Y4)
- Construct: expressed in transfected cells; host or cells: HEK (human embryonic kidney) cells expressing hCRTH2
- test-protocol: Radioligand Binding Assay A ([3H]PGD2 filtration binding, HEK-hCRTH2 membranes)
- applied-conditions: Table A, rated A-D
pKi: −log10 of the molar value.
outcome-measure: pKi

See these solved cases before continuing.
structure_notation=COc1ccc([C@H](NC(=O)c2cnc3nc(-c4ccc(F)cc4)c(CCCCC(=O)O)cc3c2)C(F)(F)F)cc1 tested_target="hCRTH2 (Homo sapiens, UniProt Q9Y5Y4)" observed_measurement="6.70 to 7.70"
structure_notation=O=C(O)CCCCc1cc2cc(C(=O)N3CC[C@@H](c4ccccc4)C3)ccc2nc1-c1ccccc1 tested_target="hCRTH2 (Homo sapiens, UniProt Q9Y5Y4)" observed_measurement="7.70 to 8.68"
structure_notation=Cc1ccc(CNC(=O)c2ccc3nc(-c4ccccc4)c(CCCCC(=O)O)cc3c2)cc1 tested_target="hCRTH2 (Homo sapiens, UniProt Q9Y5Y4)" observed_measurement="7.70 to 8.68"

(Q) Which measured pKi value corresponds to N#Cc1ccc([C@@H](NC(=O)c2ccc3nc(-c4ccc(F)cc4)c(CCCCC(=O)O)cc3c2)C(F)(F)F)cc1 ?
(A) 7.70 to 8.68

###

- tested-target: hCRTH2 (Homo sapiens, UniProt Q9Y5Y4)
- Construct: expressed in transfected cells; host or cells: HEK (human embryonic kidney) cells expressing hCRTH2
- test-protocol: Radioligand Binding Assay B (scintillation proximity assay, [3H]-PGD2, HEK-hCRTH2 membranes)
- applied-conditions: Table B, Radioligand Binding Assay B (SPA), rated A-D
outcome-measure: Ki

(Q) Given Cc1ccccc1N1CCN(C(=O)c2ccc3nc(-c4ccc(F)cc4)c(CCCCC(=O)O)cc3c2)CC1 [Compound 5AT] , state its recorded Ki.
(A) 2.1 to 20 nM

(Q) Which Ki is listed for O=C(O)CCCCc1cc2cc(C(=O)N3CCC(n4c(=O)[nH]c5ccccc54)CC3)ccc2nc1-c1ccccc1 [Compound 1AU] ?
(A) 20.1 to 200 nM

(Q) Quick one: Ki of O=C(O)CCCCc1cc2cc(C(=O)N3CC(c4cccc(F)c4)C3)ccc2nc1-c1ccccc1 [Compound 1AJ] ?
(A) 2.1 to 20 nM

###

- tested-target: hCRTH2 (Homo sapiens)
- Construct: expressed in transfected cells; host or cells: HEK (human embryonic kidney) cells expressing hCRTH2
- test-protocol: Radioligand Binding Assay A ([3H]PGD2 filtration binding, HEK-hCRTH2 membranes)
- applied-conditions: Table A, rated A-D
Structures can show the parent of a compound that is named as a salt.
Property: Ki; scope: individual compounds

Previously resolved entries follow.
compound=C[C@H](NC(=O)c1cnc2nc(-c3ccc(F)cc3)c(CCCCC(=O)O)cc2c1)c1ccc(Cl)cc1 outcome_measure=Ki observed_measurement="20.1 to 200 nM"
compound="O=C(O)CCCCc1cc2cc(C(=O)NCc3ccc(OC(F)(F)F)cc3)ccc2nc1-c1ccccc1 [Compound 1, trifluoroacetate]" outcome_measure=Ki observed_measurement="2.1 to 20 nM"
compound=O=C(O)CCCCc1cc2cc(C(=O)NCc3ccncc3)ccc2nc1-c1ccccc1 outcome_measure=Ki observed_measurement="20.1 to 200 nM"
compound=O=C(O)CCCCc1cc2cc(C(=O)NCc3ccc(C(F)(F)F)cc3)ccc2nc1-c1ccccc1 outcome_measure=Ki observed_measurement="2.1 to 20 nM"
compound=O=C(O)CCCCc1cc2cc(C(=O)N[C@H]3CCc4ccc(F)cc43)ccc2nc1-c1ccc(F)cc1 outcome_measure=Ki observed_measurement="2.1 to 20 nM"

(Q) Recall the recorded Ki for CN(Cc1ccc(Cl)cc1)C(=O)c1ccc2nc(-c3ccc(F)cc3)c(CCCCC(=O)O)cc2c1 with hCRTH2 (Homo sapiens) and state it.
(A) 2.1 to 20 nM

(Q) Form field: Ki recorded for O=C(O)CCCCc1cc2cc(C(=O)NCc3ccc(F)cc3)ccc2nc1-c1ccccc1 with hCRTH2 (Homo sapiens) (enter value)
(A) 2.1 to 20 nM
